# Test system: K562 CRISPRi cells
# Test protocol: Perturb-seq pooled growth measurement (sgRNA counts, growth phenotype γ, relative activity)
# Type: cell-based, human
# Stated conditions: sequencing read counts; 5 days of growth (day seven after transduction)
Property label: Perturb-seq pooled growth sgRNA counts, d5

Substance	Assay result
non-targeting_00001: non-targeting negative control sgRNA, GTGCACCCGGCTAGGACCGG, SEQ ID NO: 161 (listed as DNA, chemistry not fully specified) [reference compound]	18946
RAN_+_131356438.23-P1P2_12: sgRNA targeting RAN, GGCGGTCGCTGCGCTTAGGT, SEQ ID NO: 73 (listed as DNA, chemistry not fully specified)	16172
EIF2S1_−_67827080.23-P1P2_01: sgRNA targeting EIF2S1, GAGCGAAACGCACGCTGAGG, SEQ ID NO: 139 (listed as DNA, chemistry not fully specified)	3799
DUT_+_48624411.23-P1P2_01: sgRNA targeting DUT, GCCAGCGAGGAGACCACCGG, SEQ ID NO: 111 (listed as DNA, chemistry not fully specified)	6764
GINS1_−_25388381.23-P1P2_14: sgRNA targeting GINS1, GGACTAGAACGAAAGGAGCG, SEQ ID NO: 97 (listed as DNA, chemistry not fully specified)	5833

###

# Tested on: K562 CRISPRi cells
# Test protocol: Perturb-seq pooled growth measurement (sgRNA counts, growth phenotype γ, relative activity)
# Type: cell-based, human
# Stated conditions: pooled growth phenotype γ of the Perturb-seq sgRNA, day 10, K562 CRISPRi cells
Please mark satisfied if the recorded gamma_day10 is equal to or greater than -0.5, and not satisfied if it falls below.

>>> print(df.to_string())
                                  substance     target_of_assay  class_assignment
0  GINS1_ −_25388381.23-P1P2_00 (guide GGACTAGAACGAAAGGAGTG; listed as DNA, chemistry not fully specified)  K562 CRISPRi cells     not satisfied
1  COX11_ + _53045977.23-P1P2_03 (guide GGCTCTGTCGTCCTGGATGG; listed as DNA, chemistry not fully specified)  K562 CRISPRi cells         satisfied
2  CDC23_ −_137548987.23-P1P2_00 (guide GACAGCCACCGGGACCATGG; listed as DNA, chemistry not fully specified)  K562 CRISPRi cells     not satisfied
3  POLR2H_ + _184081251.23-P1P2_11 (guide GGGGCCACGAGAGCAGCGGA; listed as DNA, chemistry not fully specified)  K562 CRISPRi cells     not satisfied
4  HSPE1_ + _198365089.23-P1P2_03 (guide GGTGACTCGCAGTCCGGCCC; listed as DNA, chemistry not fully specified)  K562 CRISPRi cells         satisfied
